Assay overview: gradient 5% acetonitrile 3 min, to 50% in 2 min, to 85% in 15 min, held 3 min, 100 µL/min
Condition details: column: Zorbax Extend-C18 2.1 x 50 mm; eluents: water / acetonitrile, 0.1% formic acid
Classification scheme (RP-LC retention time): c1 (below 700 s), c2 (700 s to below 900 s), c3 (900 s or more)

Reference set, count: 6
[
  {
    "Compound": "O=C(c1ccccc1OCC1CCCNC1)N1CCCC1 (configuration not stated)",
    "Group label": "c1"
  },
  {
    "Compound": "COc1ccc(-n2ccc(=O)c(-c3nc(-c4ccc(OC(C)C)cc4)no3)n2)cc1",
    "Group label": "c3"
  },
  {
    "Compound": "Cc1ccccc1S(=O)(=O)N1CCc2nc(-c3ccc(Cl)cc3)ncc2C1",
    "Group label": "c3"
  },
  {
    "Compound": "COc1ccc(CCNC(=O)CSc2nccn2Cc2ccco2)cc1OC",
    "Group label": "c1"
  },
  {
    "Compound": "COc1ccc(-c2noc(C3(NC(=O)c4ccc(F)cc4)CCCCC3)n2)cc1",
    "Group label": "c3"
  },
  {
    "Compound": "O=C(CSc1ccc(-c2ccccn2)nn1)N1CCCCC1",
    "Group label": "c1"
  }
]

QUERY: Which category fits this record: `O=C(OCn1nnc2ccccc2c1=O)c1ccccc1[N+](=O)[O-]`
RESULT: c3

QUERY: Which category fits this record: `O=S(=O)(c1cccc(-c2nnc(-c3ccc(Cl)cc3)o2)c1)N1CCOCC1`
RESULT: c3

QUERY: Which category fits this record: Cc1nccn1CC(=O)N1CCCC(OCc2nc(C3CC3)no2)C1 (configuration not stated)
RESULT: c1

QUERY: Which category fits this record: `CCN1C(=O)C2(CCN(S(=O)(=O)c3ccc(C)cc3)CC2)c2ccccc21`
RESULT: c3

QUERY: Which category fits this record: O=C1CC(NS(=O)(=O)c2ccc(Br)s2)CN1 (configuration not stated)
RESULT: c1

QUERY: Which category fits this record: `COc1ccc(-c2ncc(C(=O)O)c(=O)[nH]2)cc1OC`
RESULT: c1
